- testedOn: chimpanzee Androgen Receptor (AR), AR (gene 747460) (UniProt O97775)
- Sequence (O97775 whole entry, looked up): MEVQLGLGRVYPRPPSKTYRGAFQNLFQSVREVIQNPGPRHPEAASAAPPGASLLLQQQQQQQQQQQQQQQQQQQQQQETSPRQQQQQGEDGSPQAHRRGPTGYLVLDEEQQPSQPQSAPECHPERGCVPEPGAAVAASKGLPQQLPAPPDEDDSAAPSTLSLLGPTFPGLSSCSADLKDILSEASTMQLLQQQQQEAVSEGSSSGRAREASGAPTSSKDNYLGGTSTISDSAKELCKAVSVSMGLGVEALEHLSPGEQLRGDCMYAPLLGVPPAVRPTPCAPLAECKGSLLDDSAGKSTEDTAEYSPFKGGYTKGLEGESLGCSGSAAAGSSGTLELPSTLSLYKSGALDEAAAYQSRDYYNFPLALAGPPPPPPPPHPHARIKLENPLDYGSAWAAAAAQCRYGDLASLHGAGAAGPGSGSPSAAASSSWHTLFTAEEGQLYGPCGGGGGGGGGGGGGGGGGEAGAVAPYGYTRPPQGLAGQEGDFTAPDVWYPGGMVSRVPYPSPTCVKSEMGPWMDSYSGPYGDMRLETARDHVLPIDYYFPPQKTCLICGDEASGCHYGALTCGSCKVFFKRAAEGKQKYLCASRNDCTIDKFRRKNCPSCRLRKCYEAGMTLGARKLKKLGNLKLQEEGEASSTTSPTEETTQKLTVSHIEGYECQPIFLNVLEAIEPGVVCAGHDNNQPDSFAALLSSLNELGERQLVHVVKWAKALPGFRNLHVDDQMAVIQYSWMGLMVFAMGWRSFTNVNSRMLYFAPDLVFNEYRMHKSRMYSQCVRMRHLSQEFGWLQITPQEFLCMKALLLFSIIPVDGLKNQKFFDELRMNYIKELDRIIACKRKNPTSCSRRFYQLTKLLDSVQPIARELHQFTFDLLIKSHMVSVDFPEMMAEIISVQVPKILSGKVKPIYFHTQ
- measurementDescription: NVS_NR_cAR: NovaScreen (NVS) Nuclear Receptor Binding Assay for chimpanzee Androgen Receptor (AR) (AID 2283346);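 also: radioligand displacement from AR measured by scintillation counting in a cell-free assay; a loss of bound radioligand signal versus DMSO counts as binding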
Records with an inconclusive call do not appear. Active and inactive are the calls of the source. The calls were made as follows: active = hit-call score of the fitted dose curve at least 0.9, where 1 is the maximum; inconclusive = response in the unintended direction; inactive = score below 0.9.
Task for the reader: assign each of the following molecules its reported AC50.

Entry Cc1cccc(N)c1N , AC50 reported as 5.01 µM (active)

Entry CN(C)[C@@H]1C(=O)C(C(N)=O)=C(O)[C@@]2(O)C(=O)C3=C(O)c4c(O)cccc4[C@@](C)(O)[C@H]3C[C@@H]12 , AC50 reported as 37.4 µM (active)

Entry Nc1ccc(Cl)cc1N , AC50 reported as 25 µM (active)

Entry Nc1ccc([N+](=O)[O-])cc1 , AC50 reported as 25 µM (active)

Entry Oc1ccc2ccc3cccc4ccc1c2c34 , AC50 reported as 8.27 µM (active)

---

- measurementDescription: CCTE_Shafer_MEA_dev_correlation_coefficient_mean: CCTE's Neural Network Formation Assay for Mean Correlation Coefficient, Shafer Lab (AID 2284093);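 as to AC50: well mean pairwise spike train correlation integrated as AUC over recording days 5 to 12; potency fitted for loss of correlation relative to DMSO vehicle wells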
Calls of active or inactive are those of the source. How the source made its calls: active means hit-call score of the fitted dose curve at least 0.9, where 1 is the maximum; inactive means score below 0.9.
reportedEndpoint: AC50

1) Nc1cc(Cl)cc(C(=O)O)c1Cl    inactive
2) CN(C)[C@@H]1C(=O)C(C(N)=O)=C(O)[C@@]2(O)C(=O)C3=C(O)c4c(O)cccc4[C@@](C)(O)[C@H]3C[C@@H]12    inactive
3) [O-][Cl+]O    inactive
4) O=P(OCCCl)(OCCCl)OCCCl    inactive
5) CC(C)(C)C(O)(CCc1ccc(Cl)cc1)Cn1cncn1 (stereo unspecified)    15 µM (active)

Now for another entry.
Entry CCC[CH2][Sn]([Cl])([CH2]CCC)[CH2]CCC , AC50 reported as 0.0772 µM (active)

---

- Read-out: Interleukin-8 (IL8), CXCL8 (gene 3576)
- measurementDescription: BSK_CASM3C_IL8: BioMAP Diversity Plus: CASM3C Assay for Interleukin-8 (IL8) Biomarker Activity (AID 2283042);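 also: IL-8 protein level quantified by ELISA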
- assayConditions: primary human coronary artery smooth muscle cells; actives raise or lower the signal
Active and inactive are the calls of the source. How the source made its calls: active means hit-call score of the fitted dose curve at least 0.9, where 1 is the maximum; inactive means score below 0.9.
Allowed answers: YES for active, NO for inactive

Challenge: What was the test verdict on CN(C)c1ccccc1 ?
Response given: NO

Challenge: What was the test verdict on OCCOCCO ?
Response given: NO

Challenge: What was the test verdict on ClC1=C(Cl)C2(Cl)C3C(Cl)C=CC3C1(Cl)C2(Cl)Cl (stereo not drawn) ?
Response given: YES

Challenge: What was the test verdict on c1ccc(C2CO2)cc1 (stereo not drawn) ?
Response given: NO

Challenge: What was the test verdict on Nc1ccc(N=Nc2ccccc2)cc1 ?
Response given: NO

Challenge: What was the test verdict on CCCCCCCCn1sccc1=O ?
Response given: YES

Challenge: What was the test verdict on Clc1ccc(C(c2ccc(Cl)cc2)C(Cl)(Cl)Cl)cc1 ?
Response given: NO

Challenge: What was the test verdict on Cc1ccc(N=C=O)cc1N=C=O ?
Response given: NO

Challenge: What was the test verdict on CCOc1cccc(C2(N3CCN(c4ccccc4)CC3)CCC(C)CC2)c1 (stereo not drawn) ?
Response given: NO

Challenge: What was the test verdict on Clc1ccc(C(c2ccc(Cl)cc2)C(Cl)Cl)cc1 ?
Response given: NO

Challenge: What was the test verdict on CCCCCCCCOC(=O)c1ccc(C(=O)OCCCCCCCC)c(C(=O)OCCCCCCCC)c1 ?
Response given: NO

Challenge: What was the test verdict on CN(C)C(=O)Nc1ccc(Cl)cc1 ?
Response given: NO

Challenge: What was the test verdict on c1ccc2c(c1)-c1cccc3cccc-2c13 ?
Response given: NO

Challenge: What was the test verdict on OCCCl ?
Response given: NO

Challenge: What was the test verdict on CCCCCOC(=O)c1ccccc1C(=O)OCCCCC ?
Response given: NO

Challenge: What was the test verdict on CN(C)c1ccc(C(=O)c2ccc(N(C)C)cc2)cc1 ?
Response given: NO

Challenge: What was the test verdict on CCN(CC)CCO ?
Response given: NO

Challenge: What was the test verdict on Oc1ccc2ccc3cccc4ccc1c2c34 ?
Response given: NO

Challenge: What was the test verdict on CCN(CC)N=O ?
Response given: NO

Challenge: What was the test verdict on Cc1ccc(N)c(N)c1 ?
Response given: NO

Challenge: What was the test verdict on CC(C)(C)C(O)(CCc1ccc(Cl)cc1)Cn1cncn1 (stereo not drawn) ?
Response given: NO

Challenge: What was the test verdict on CC(C)(C)OOC(C)(C)CCC(C)(C)OOC(C)(C)C ?
Response given: NO

Challenge: What was the test verdict on O=[N+]([O-])c1ccc(Oc2ccc(Cl)cc2Cl)cc1 ?
Response given: NO

Challenge: What was the test verdict on CC(O)CCO (stereo not drawn) ?
Response given: NO

Challenge: What was the test verdict on CO[C@@H]1[C@H](OC(=O)NC(=O)CCl)CC[C@]2(CO2)[C@H]1[C@@]1(C)O[C@@H]1CC=C(C)C ?
Response given: NO

Challenge: What was the test verdict on Nc1ccc([N+](=O)[O-])cc1 ?
Response given: NO

Challenge: What was the test verdict on Oc1ccccc1Cl ?
Response given: NO

Challenge: What was the test verdict on Nc1ccc(Cc2ccc(N)cc2)cc1 ?
Response given: NO

Challenge: What was the test verdict on c1ccc(NNc2ccccc2)cc1 ?
Response given: NO

Challenge: What was the test verdict on C[C@]12C=CC3=C4CCC(=O)C=C4CC[C@H]3[C@@H]1CC[C@@H]2O ?
Response given: NO

Challenge: What was the test verdict on Cc1cccc(N)c1N ?
Response given: NO

Challenge: What was the test verdict on [O-][Cl+]O ?
Response given: NO

Challenge: What was the test verdict on CCCSC(=O)N(CCC)CCC ?
Response given: NO

Challenge: What was the test verdict on CC(C)(O)c1cnn2c(-c3ccc(F)c(-c4c(F)cccc4C#N)c3)cnc2n1 ?
Response given: NO

Challenge: What was the test verdict on Nc1cc(Cl)cc(C(=O)O)c1Cl ?
Response given: NO

Challenge: What was the test verdict on Clc1ccc(Cl)c(Cl)c1 ?
Response given: NO

Challenge: What was the test verdict on O=C1CCCO1 ?
Response given: NO

Challenge: What was the test verdict on CCCCOC(=O)c1ccccc1C(=O)OCc1ccccc1 ?
Response given: NO
